target_under_test: Protein kinase C gamma type (Homo sapiens)
measurement_context: at 1 µM
quantity_kind: residual activity (%)
State just the number; it will be interpreted in %.

smiles_representation: Nc1n[nH]c2nnc(-c3c(-c4ccccc4)nn4ccccc34)cc12
residual activity, %: 98
//
smiles_representation: CO[C@H]1C[C@@H]2CC[C@@H](C)[C@@](O)(O2)C(=O)C(=O)N2CCCC[C@H]2C(=O)O[C@H]([C@H](C)C[C@@H]2CC[C@@H](O)[C@H](OC)C2)CC(=O)[C@H](C)/C=C(\C)[C@@H](O)[C@@H](OC)C(=O)[C@H](C)C[C@H](C)/C=C/C=C/C=C/1C
residual activity, %: 105
//
smiles_representation: CC#CC(=O)Nc1cc2c(Nc3ccc(F)c(Cl)c3)ncnc2cn1
residual activity, %: 109
//
smiles_representation: CC[n+]1c(/C=C/N(C)c2ccccc2)n(-c2ccccc2)c2ccc(-c3nc4ccccc4s3)cc21
residual activity, %: 115
//
smiles_representation: Oc1ccc(Nc2nc(-c3ccc(Cl)cc3)cs2)cc1
residual activity, %: 102

Note to self: residual activity recorded for COc1ccc(OC)c2c(=S)c3ccccc3[nH]c12 was 96

Note to self: residual activity recorded for COc1ccc(CNc2nc(N(CCO)CCO)nc3c2ncn3C(C)C)cc1 was 97

Note to self: residual activity recorded for Cc1cc2ncc(-c3ccccc3)nc2cc1C was 106

Note to self: residual activity recorded for CCN(CC)C(=O)c1ccc(Nc2nc(OCC3CCCCC3)c3nc[nH]c3n2)cc1 was 46

Note to self: residual activity recorded for O=C1Nc2ccc(Br)cc2/C1=C\c1cc2c([nH]1)CCCC2 was 109

Note to self: residual activity recorded for CC(C)n1cnc2c(NCc3ccccc3)nc(NCCCO)nc21 was 92

Note to self: residual activity recorded for COc1ccc(S(=O)(=O)N(CCO)c2ccccc2CN(C)C/C=C/c2ccc(Cl)cc2)cc1 was 99

Note to self: residual activity recorded for Oc1c2ccccc2c2c3c(cccc13)N=N2 was 73

---

Measured residual activity, listed per entry.
target_under_test: Tyrosine-protein kinase ABL2 (Homo sapiens)
measurement_context: at 10 µM
// return the numeric value with its unit appended

smiles_representation: O=C1c2ccccc2-[n+]2ccc3c([nH]c4ccccc43)c21
residual activity: 87%

Note to self: residual activity recorded for O=C(Nc1cccc(Nc2nccc(Nc3cccc(C(F)(F)F)c3)n2)c1)C1CC1 was 44%

Note to self: residual activity recorded for O=C1NC(=O)/C(=C/c2ccc3c(c2)OC(F)(F)O3)S1 was 98%

Note to self: residual activity recorded for Oc1ccc(-c2nc(-c3ccc(F)cc3)c(-c3ccncc3)[nH]2)cc1 was 41%

Note to self: residual activity recorded for NC(=O)c1ccc2[nH]c(-c3ccc(Oc4ccc(Cl)cc4)cc3)nc2c1 was 95%

Note to self: residual activity recorded for COc1cc2ncnc(Nc3ccc(Oc4ccccc4)cc3)c2cc1OC was 93%

---

target_under_test: Ribosomal protein S6 kinase alpha-4 (Homo sapiens)
measurement_context: at 1 µM
Measured residual activity, listed per entry.
State just the number; it will be interpreted in %.

Solved entries:
smiles_representation: N#C/C(=C(\N)Sc1ccc(N)cc1)c1ccccc1C(F)(F)F
u: %
residual activity: 97
//
smiles_representation: CC(C)n1cnc2/c(=N/c3cccc(Cl)c3)nc(NCCO)[nH]c21
u: %
residual activity: 57
//
smiles_representation: O=C1c2ccccc2-[n+]2ccc3c([nH]c4ccccc43)c21
u: %
residual activity: 97
//
smiles_representation: Cc1nc2cc3nc(-c4cccs4)cnc3cc2n1C
u: %
residual activity: 101
//
smiles_representation: Cc1ccc(S(=O)(=O)/C=C/C#N)cc1
u: %
residual activity: 105

Note to self: residual activity recorded for O=c1cc(-c2cccc3c2Sc2ccccc2S3)oc(N2CCOCC2)c1 was 95

Note to self: residual activity recorded for c1ccc(-c2n[nH]c3c2oc2ccccc23)cc1 was 95

Note to self: residual activity recorded for C[C@@H](N)[C@H]1CC[C@H](C(=O)Nc2ccncc2)CC1 was 82

Note to self: residual activity recorded for CCOc1cc2ncnc(Nc3cccc(Br)c3)c2cc1OCC was 105

Note to self: residual activity recorded for CC(=O)O/N=C1\C(=C2\C(=O)Nc3cc(Br)ccc32)Nc2ccccc21 was 100

---

target_under_test: RAF proto-oncogene serine/threonine-protein kinase (Homo sapiens)
measurement_context: at 10 µM
Classification field. Basis: residual activity. Definitions: I (below 70%), II (70% to below 90%), III (90% or more)

Before answering, review these 3 worked examples.
compound: CC(=O)O/N=C1\C(=C2\C(=O)Nc3cc(Br)ccc32)Nc2ccccc21
label_class: II

compound: COc1cc2ncnc(Nc3ccc(O)c(Br)c3)c2cc1OC
label_class: I

compound: O=C1Nc2ccccc2/C1=C1/Nc2ccccc2/C1=N\OCCC(O)CO (centres undefined)
label_class: I

INPUT: Assign a bin to CN(C)c1ccc(/C=C2\C(=O)Nc3ccccc32)cc1
OUTPUT: II

INPUT: Assign a bin to O=C(Nc1cccc(Nc2nccc(Nc3cccc(C(F)(F)F)c3)n2)c1)C1CC1
OUTPUT: II

INPUT: Assign a bin to CCN(CC)C(=O)c1ccc(Nc2nc(OCC3CCCCC3)c3nc[nH]c3n2)cc1
OUTPUT: I

---

target_under_test: Mitogen-activated protein kinase 10 (Homo sapiens) (UniProt P53779)
Sequence (P53779 whole entry): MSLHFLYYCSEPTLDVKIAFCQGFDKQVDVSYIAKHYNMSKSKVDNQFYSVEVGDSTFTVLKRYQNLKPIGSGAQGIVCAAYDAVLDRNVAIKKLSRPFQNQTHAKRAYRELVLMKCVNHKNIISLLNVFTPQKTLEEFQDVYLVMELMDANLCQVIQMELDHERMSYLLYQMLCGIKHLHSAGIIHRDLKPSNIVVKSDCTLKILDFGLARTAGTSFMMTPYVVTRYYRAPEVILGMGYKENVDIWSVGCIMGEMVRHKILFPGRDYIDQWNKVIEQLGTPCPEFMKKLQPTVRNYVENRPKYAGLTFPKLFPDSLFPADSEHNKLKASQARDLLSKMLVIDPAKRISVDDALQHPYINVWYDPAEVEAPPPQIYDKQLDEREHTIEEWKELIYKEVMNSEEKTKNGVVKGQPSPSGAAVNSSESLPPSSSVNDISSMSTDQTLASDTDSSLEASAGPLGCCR
measurement_context: at 1 µM
Returns: string. Value is Met if measured residual activity is below 70%, and Not met if it is greater than or equal to it.

INPUT: Would you kindly verify if residual activity of Cn1cc(/C=C2\C(=O)Nc3ccc(S(N)(=O)=O)cc32)c2ccccc21 is strictly less than 70%?
OUTPUT: Met

INPUT: Would you kindly verify if residual activity of Nc1cccc(-c2cc3c(Oc4cccc(O)c4)ncnc3[nH]2)c1 is strictly less than 70%?
OUTPUT: Not met

INPUT: Would you kindly verify if residual activity of Oc1c2ccccc2c2c3c(cccc13)N=N2 is strictly less than 70%?
OUTPUT: Met

INPUT: Would you kindly verify if residual activity of CC[n+]1c(/C=C/N(C)c2ccccc2)n(-c2ccccc2)c2ccc(-c3nc4ccccc4s3)cc21 is strictly less than 70%?
OUTPUT: Not met

---

Measured residual activity, listed per entry.
target_under_test: CDK9/cyclin T1 (Homo sapiens) (UniProt O60563+P50750)
measurement_context: at 1 µM
State just the number; it will be interpreted in %.

smiles_representation: COc1ccc(C(=O)Nc2sc3c(c2C(N)=O)CCCC3)cc1OC
reading: 96
--
smiles_representation: CO[C@@H]1[C@H](N(C)C(=O)c2ccccc2)C[C@H]2O[C@]1(C)n1c3ccccc3c3c4c(c5c6ccccc6n2c5c31)C(=O)NC4
reading: 70
--
smiles_representation: O=C1NC(=O)/C(=C\c2ccc3nccnc3c2)S1
reading: 60

Lab note: next compound to report on.
Note to self: residual activity recorded for CO[C@H]1[C@@H](OC)C[C@H](C)[C@@H](OC)C2=CC(=O)C=C(NC(=O)/C(C)=C/C=C/[C@H](OC)[C@@H](OC(N)=O)/C(C)=C/[C@@H]1C)C2=O was 100

---

target_under_test: LIM domain kinase 1 (Homo sapiens) (UniProt P53667)
Sequence (P53667 whole entry, looked up, the tested form may be a part): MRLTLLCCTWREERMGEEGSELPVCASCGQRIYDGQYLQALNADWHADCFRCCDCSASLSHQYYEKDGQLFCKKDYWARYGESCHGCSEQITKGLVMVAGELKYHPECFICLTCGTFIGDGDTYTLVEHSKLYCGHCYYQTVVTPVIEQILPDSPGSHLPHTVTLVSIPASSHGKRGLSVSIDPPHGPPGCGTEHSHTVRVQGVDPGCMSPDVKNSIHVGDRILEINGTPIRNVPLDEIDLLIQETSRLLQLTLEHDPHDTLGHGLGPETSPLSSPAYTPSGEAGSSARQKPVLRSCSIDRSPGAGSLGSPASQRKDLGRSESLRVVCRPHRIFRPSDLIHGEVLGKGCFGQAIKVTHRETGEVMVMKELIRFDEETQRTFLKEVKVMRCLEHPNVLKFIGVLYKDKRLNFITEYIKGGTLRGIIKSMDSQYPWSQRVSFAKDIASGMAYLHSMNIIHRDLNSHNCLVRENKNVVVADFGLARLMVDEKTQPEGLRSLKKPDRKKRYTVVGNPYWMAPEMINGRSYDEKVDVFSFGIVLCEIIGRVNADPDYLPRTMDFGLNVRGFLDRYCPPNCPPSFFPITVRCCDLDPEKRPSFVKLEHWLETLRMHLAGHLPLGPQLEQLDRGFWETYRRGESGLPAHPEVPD
measurement_context: at 10 µM
Measured residual activity, listed per entry.
State just the number; it will be interpreted in %.

Solved entries:
smiles_representation: Cn1cnc2cc3c(Nc4cccc(Br)c4)ncnc3cc21
reading: 57
//
smiles_representation: Cn1cc(/C=C2\C(=O)Nc3ccc(S(N)(=O)=O)cc32)c2ccccc21
reading: 53
//
smiles_representation: COc1cccc(-c2cc(=O)c3ccccc3o2)c1N
reading: 93
//
smiles_representation: C[C@@H](N)[C@H]1CC[C@H](C(=O)Nc2ccncc2)CC1
reading: 89
//
smiles_representation: O=C1NC(=O)c2cc(Nc3ccc(F)cc3)c(Nc3ccc(F)cc3)cc21
reading: 91
//
smiles_representation: Nc1n[nH]c2nnc(-c3c(-c4ccccc4)nn4ccccc34)cc12
reading: 85
//
smiles_representation: CC#CC(=O)Nc1cc2c(Nc3ccc(F)c(Cl)c3)ncnc2cn1
reading: 91
//
smiles_representation: CCOc1cc2ncnc(Nc3cccc(Br)c3)c2cc1OCC
reading: 49

The reported residual activity value, LIM domain kinase 1 (Homo sapiens) (UniProt P53667), for Oc1ccc(-c2nc(-c3ccc(F)cc3)c(-c3ccncc3)[nH]2)cc1 reads 69

The reported residual activity value, LIM domain kinase 1 (Homo sapiens) (UniProt P53667), for COc1cc2ncnc(Nc3ccc(NC(=O)c4ccccc4)cc3)c2cc1OC reads 56

The reported residual activity value, LIM domain kinase 1 (Homo sapiens) (UniProt P53667), for COc1ccc(CNc2nc(N(CCO)CCO)nc3c2ncn3C(C)C)cc1 reads 88

---

target_under_test: Myosin light chain kinase, smooth muscle (Homo sapiens) (UniProt Q15746)
Sequence (Q15746 whole entry): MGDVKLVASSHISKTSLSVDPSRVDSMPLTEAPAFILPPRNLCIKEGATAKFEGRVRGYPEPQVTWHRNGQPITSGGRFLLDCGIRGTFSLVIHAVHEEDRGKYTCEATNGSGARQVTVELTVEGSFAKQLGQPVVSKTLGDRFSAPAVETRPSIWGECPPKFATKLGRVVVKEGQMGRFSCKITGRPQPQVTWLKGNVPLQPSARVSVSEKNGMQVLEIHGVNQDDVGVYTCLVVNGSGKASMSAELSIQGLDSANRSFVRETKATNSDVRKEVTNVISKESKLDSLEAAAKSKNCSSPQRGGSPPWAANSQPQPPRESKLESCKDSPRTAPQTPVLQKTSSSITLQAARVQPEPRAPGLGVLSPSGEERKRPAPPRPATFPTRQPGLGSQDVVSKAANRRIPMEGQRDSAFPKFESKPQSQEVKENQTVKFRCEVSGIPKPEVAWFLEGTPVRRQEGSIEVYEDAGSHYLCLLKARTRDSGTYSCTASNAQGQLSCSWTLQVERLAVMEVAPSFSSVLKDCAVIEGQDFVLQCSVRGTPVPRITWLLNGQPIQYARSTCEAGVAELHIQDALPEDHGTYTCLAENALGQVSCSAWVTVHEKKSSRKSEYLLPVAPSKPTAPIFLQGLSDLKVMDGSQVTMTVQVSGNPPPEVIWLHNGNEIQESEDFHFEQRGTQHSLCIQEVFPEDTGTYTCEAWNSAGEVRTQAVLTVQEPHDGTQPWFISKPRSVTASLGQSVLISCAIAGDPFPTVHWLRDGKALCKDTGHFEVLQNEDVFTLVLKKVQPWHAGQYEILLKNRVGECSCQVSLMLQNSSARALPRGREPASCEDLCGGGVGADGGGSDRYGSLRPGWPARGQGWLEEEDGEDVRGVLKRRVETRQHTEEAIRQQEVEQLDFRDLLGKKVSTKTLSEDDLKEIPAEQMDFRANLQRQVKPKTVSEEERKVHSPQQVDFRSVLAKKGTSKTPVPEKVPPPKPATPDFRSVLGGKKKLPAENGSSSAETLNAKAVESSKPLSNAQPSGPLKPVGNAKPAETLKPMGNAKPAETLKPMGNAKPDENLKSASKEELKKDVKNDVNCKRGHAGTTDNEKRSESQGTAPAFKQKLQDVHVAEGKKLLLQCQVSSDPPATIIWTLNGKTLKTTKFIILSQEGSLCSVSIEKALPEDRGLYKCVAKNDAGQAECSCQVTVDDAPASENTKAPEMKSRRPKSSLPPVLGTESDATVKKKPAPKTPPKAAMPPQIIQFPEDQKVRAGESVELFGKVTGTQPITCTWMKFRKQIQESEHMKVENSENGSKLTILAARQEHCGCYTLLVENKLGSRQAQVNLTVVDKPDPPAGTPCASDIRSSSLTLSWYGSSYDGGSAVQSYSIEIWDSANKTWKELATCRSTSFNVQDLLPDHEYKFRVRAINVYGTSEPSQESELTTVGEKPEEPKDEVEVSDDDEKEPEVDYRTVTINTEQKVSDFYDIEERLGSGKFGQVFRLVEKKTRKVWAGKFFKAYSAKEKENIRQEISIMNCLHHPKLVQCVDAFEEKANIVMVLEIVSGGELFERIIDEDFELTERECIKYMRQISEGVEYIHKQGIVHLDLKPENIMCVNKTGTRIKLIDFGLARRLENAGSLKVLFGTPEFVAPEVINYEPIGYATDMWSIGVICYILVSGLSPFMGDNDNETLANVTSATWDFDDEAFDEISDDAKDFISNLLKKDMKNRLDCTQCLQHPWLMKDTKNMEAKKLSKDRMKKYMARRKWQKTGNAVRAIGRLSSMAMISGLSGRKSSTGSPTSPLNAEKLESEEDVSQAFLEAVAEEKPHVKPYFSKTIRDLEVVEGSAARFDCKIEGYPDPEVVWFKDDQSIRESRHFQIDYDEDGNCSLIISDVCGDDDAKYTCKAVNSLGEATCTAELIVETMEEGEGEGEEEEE
measurement_context: at 1 µM
Measured residual activity, listed per entry.
State just the number; it will be interpreted in %.

Solved entries:
smiles_representation: Oc1ccc(Nc2nc(-c3ccc(Cl)cc3)cs2)cc1
residual activity (%): 118
//
smiles_representation: O=C1NC(=O)/C(=C\c2ccc3nccnc3c2)S1
residual activity (%): 81

Lab note: next molecule to report on.
Note to self: residual activity recorded for Cc1cccc(-c2[nH]c(C(C)(C)C)nc2-c2ccc3c(c2)OCO3)n1 was 84
